Attribution: paper PMC12321279

target: 5‐HT1A receptor (Rattus norvegicus, UniProt P19327); construct: 80 μg of hippocampal membrane suspension (the 5‐HT1A assay); from tissue; host or cells: rat (Sprague-Dawley) hippocampus membranes; assay: 5‐HT1A competition binding assay ([3H]8‐OH‐DPAT, hippocampal membranes); conditions: 1 nM [3H]8‐OH‐DPAT, 95% CI in brackets, read-out: 5‐HT1A Ki (95% CI)
Sequence (P19327 whole entry): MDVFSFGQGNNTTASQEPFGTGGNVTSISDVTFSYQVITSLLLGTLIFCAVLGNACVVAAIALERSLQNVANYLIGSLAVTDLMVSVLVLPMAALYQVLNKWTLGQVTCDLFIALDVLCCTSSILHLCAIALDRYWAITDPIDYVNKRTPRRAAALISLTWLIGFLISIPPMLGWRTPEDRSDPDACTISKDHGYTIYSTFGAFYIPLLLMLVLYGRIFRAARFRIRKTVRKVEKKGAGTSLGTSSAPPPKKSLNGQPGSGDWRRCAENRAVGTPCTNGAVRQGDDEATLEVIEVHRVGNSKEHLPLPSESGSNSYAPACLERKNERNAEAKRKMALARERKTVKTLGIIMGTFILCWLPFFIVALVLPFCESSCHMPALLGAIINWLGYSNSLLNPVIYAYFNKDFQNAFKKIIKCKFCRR
ATTRIBUTE MEASURED: Ki (nM)
API: value field is a number in nM; no unit string.

Below are worked cases with known answers.
> print(dat)
                                   compound  reported
1  O=C(NCCCN1CCN(c2cccc(C3=NCCS3)c2)CC1)c1ccncc1 [FG‐5]      1100
2  O=C(NCCCN1CCN(c2ccc(C3=NCCS3)cc2)CC1)c1ccccn1 [FG‐3]      4500

From here, focus on the item given below.
## Input What reported Ki corresponds to O=C1C2C3C=CC(O3)C2C(=O)N1OCCCN1CCN(c2cccc(C3=NCCS3)c2)CC1 (stereo not drawn) [FG‐11] on 5‐HT1A receptor (Rattus norvegicus, UniProt P19327)?
## Output 2200

----------
biological target: 5‐HT1A receptor (Rattus norvegicus); construct: 80 μg of hippocampal membrane suspension (the 5‐HT1A assay); from tissue; host or cells: rat (Sprague-Dawley) hippocampus membranes; assay: 5‐HT1A receptor activation in the [35S]GTP‐γ‐S assay (hippocampal membranes); format: biochemical; conditions: [35S]GTPγS, rat hippocampal membranes
ATTRIBUTE MEASURED: Emax (%) ± SEM, 5‐HT1A receptor G‐protein stimulation

Below are worked cases with known answers.
> print(dat)
                                   compound     reported
1  O=C(NCCCN1CCN(c2ccc(C3=NCCS3)cc2)CC1)C1CC2C=CC1C2 (stereo not drawn)   144 ± 8.2%
2  O=C(NCCCN1CCN(c2ccccc2C2=NCCS2)CC1)C1CC2C=CC1C2 (stereo not drawn)   127 ± 3.2%
3  O=C(NCCCN1CCN(c2cccc(C3=NCCS3)c2)CC1)C1CC2C=CC1C2 (stereo not drawn)   134 ± 2.5%
4  O=C(NCCCN1CCN(c2ccc(C3=NCCS3)cc2)CC1)c1ccccn1  No activity
5  O=C1C2C3C=CC(O3)C2C(=O)N1OCCCN1CCN(c2cccc(C3=NCCS3)c2)CC1 (stereo not drawn)  No activity

From here, focus on the item given below.
## Input For O=C1C2C3C=CC(C3)C2C(=O)N1OCCCN1CCN(c2ccc(C3=NCCS3)cc2)CC1 (stereo not drawn) , what is its reported Emax (%) ± SEM, 5‐HT1A receptor G‐protein stimulation?
## Output No activity

----------
target: 5‐HT1A receptor (Rattus norvegicus, UniProt P19327); construct: 80 μg of hippocampal membrane suspension (the 5‐HT1A assay); from tissue; host or cells: rat (Sprague-Dawley) hippocampus membranes; assay: 5‐HT1A receptor activation in the [35S]GTP‐γ‐S assay (hippocampal membranes); assay type: biochemical; settings: [35S]GTPγS, rat hippocampal membranes; read-out: pEC50, 5‐HT1A receptor G‐protein stimulation (converted)
ATTRIBUTE MEASURED: EC50
Answer format: number, then unit.

## Input For O=C(NCCCN1CCN(c2ccc(C3=NCCS3)cc2)CC1)C1CC2C=CC1C2 (stereo not shown) [FG‐18] , what is its reported EC50?
## Output 8.91 µM

## Input For O=C(NCCCN1CCN(c2ccccc2C2=NCCS2)CC1)c1ccncc1 [FG‐4] , what is its reported EC50?
## Output 50.1 µM

## Input For O=C(NCCCN1CCN(c2ccccc2C2=NCCS2)CC1)c1ccccn1 [FG‐1] , what is its reported EC50?
## Output 20 µM

## Input For O=C(NCCCN1CCN(c2ccc(C3=NCCS3)cc2)CC1)C1CC2C=CC1C2 (stereo not shown) [FG‐15] , what is its reported EC50?
## Output 89.1 µM

----------
biological target: 5‐HT1A receptor (Rattus norvegicus); construct: 80 μg of hippocampal membrane suspension (the 5‐HT1A assay); from tissue; host or cells: rat (Sprague-Dawley) hippocampus membranes; test: 5‐HT1A receptor activation in the [35S]GTP‐γ‐S assay (hippocampal membranes); type: biochemical; details: [35S]GTPγS, rat hippocampal membranes; read-out: Emax (%) ± SEM, 5‐HT1A receptor G‐protein stimulation
ATTRIBUTE MEASURED: Emax (%)
API: value field is a number in %; no unit string.

Below are worked cases with known answers.
> print(dat)
                                   compound  reported
1  O=C(NCCCN1CCN(c2ccccc2C2=NCCS2)CC1)C1CC2C=CC1C2 (stereo not drawn)       132
2  O=C(NCCCN1CCN(c2ccc(C3=NCCS3)cc2)CC1)C1CC2C=CC1C2 (stereo not drawn)       137

## Input For O=C1C2C3C=CC(C3)C2C(=O)N1OCCCN1CCN(c2cccc(C3=NCCS3)c2)CC1 (stereo not drawn) , what is its reported Emax?
## Output 184

----------
The entries below come with measured Emax values attached.
target: 5‐HT2A receptor (Rattus norvegicus); test: Inhibition of 5‐HT‐evoked contractions in isolated rat ileum; design: segments (1–1.5 cm) of ileum were removed, flushed of luminal contents, and placed in Krebs solution; from tissue; host or cells: isolated rat (Sprague-Dawley) ileum segments; conditions: 5‐HT 10^−5 M; compounds 10^−8–10^−5 M; read-out: EMAX, maximal inhibitory effect on 5‐HT‐induced contractions in the rat ileum
Sequence (P14842 whole entry): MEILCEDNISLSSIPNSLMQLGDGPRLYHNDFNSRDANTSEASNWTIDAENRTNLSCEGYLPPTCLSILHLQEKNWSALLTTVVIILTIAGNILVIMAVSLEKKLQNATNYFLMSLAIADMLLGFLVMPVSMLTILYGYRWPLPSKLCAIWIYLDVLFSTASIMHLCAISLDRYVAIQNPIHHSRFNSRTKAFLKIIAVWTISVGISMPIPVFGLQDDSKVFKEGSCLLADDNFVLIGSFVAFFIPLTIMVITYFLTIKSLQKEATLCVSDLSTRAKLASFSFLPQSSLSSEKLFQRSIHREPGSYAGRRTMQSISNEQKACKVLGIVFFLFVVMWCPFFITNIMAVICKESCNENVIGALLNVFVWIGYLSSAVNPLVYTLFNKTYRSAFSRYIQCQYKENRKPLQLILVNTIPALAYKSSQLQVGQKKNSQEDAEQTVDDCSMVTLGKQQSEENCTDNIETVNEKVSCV
API: value field is a number in %; no unit string.

## Input For O=C1C2C3C=CC(C3)C2C(=O)N1OCCCN1CCN(c2ccccc2C2=NCCS2)CC1 (stereo not shown) , what is its reported Emax?
## Output 24.5

----------
Biological target: 5‐HT2A receptor (Rattus norvegicus)
Assay: Inhibition of 5‐HT‐evoked contractions in isolated rat ileum
Conditions: IC50, inhibition of 5‐HT‐induced contractions in the rat ileum, 5‐HT 10^−5 M; compounds 10^−8–10^−5 M, contact time 10 min
Experimental: Male rats (Sprague‐Dawley, 160–200 g; Charles River Laboratories; Calco, Italy) were manipulated and cared for in strict compliance with the principles of laboratory animal care. […] The segments were prepared as previously described:^[ [41] ^] the segments were set up in such a way as to record contractions mainly from the longitudinal axis, in an organ bath containing 20 mL of Krebs solution, bubbled with 95% O2 and 5% CO2 and maintained at 37 °C. […] Results are expressed as mean (SEM). […]
The entries below come with measured pIC50 values attached.
Scale for pIC50: -log10 of concentration given in mol/L; no unit attached.

> print(dat)
                                   molecule                     target.or.system  reported
1  O=C1C2C3C=CC(O3)C2C(=O)N1OCCCN1CCN(c2cccc(C3=NCCS3)c2)CC1 (stereo not drawn)  5‐HT2A receptor (Rattus norvegicus)      5.36
2  O=C(NCCCN1CCN(c2ccccc2C2=NCCS2)CC1)C1CC2C=CC1C2 (stereo not drawn)  5‐HT2A receptor (Rattus norvegicus)      5.20

From here, focus on the item given below.
## Input For O=C1C2C3C=CC(C3)C2C(=O)N1OCCCN1CCN(c2cccc(C3=NCCS3)c2)CC1 (stereo not drawn) , what is its reported pIC50?
## Output 6.81

----------
The entries below come with measured EC50 values attached.
target: 5‐HT1A receptor (Rattus norvegicus); construct: 80 μg of hippocampal membrane suspension (the 5‐HT1A assay); from tissue; host or cells: rat (Sprague-Dawley) hippocampus membranes; test: 5‐HT1A receptor activation in the [35S]GTP‐γ‐S assay (hippocampal membranes); type: biochemical; details: [35S]GTPγS, rat hippocampal membranes; 95% CI in brackets; read-out: EC50 (95% CI, μM), 5‐HT1A receptor G‐protein stimulation
API: value field is a number in µM; no unit string.

Below are worked cases with known answers.
> print(dat)
                                   compound                     target.or.system  reported
1  O=C(NCCCN1CCN(c2cccc(C3=NCCS3)c2)CC1)C1CC2C=CC1C2 (centres unmarked) [FG‐17]  5‐HT1A receptor (Rattus norvegicus)      21.1
2  O=C(NCCCN1CCN(c2ccccc2C2=NCCS2)CC1)C1CC2C=CC1C2 (centres unmarked) [FG‐13]  5‐HT1A receptor (Rattus norvegicus)      79.6
3  O=C1C2C3C=CC(O3)C2C(=O)N1OCCCN1CCN(c2ccc(C3=NCCS3)cc2)CC1 (centres unmarked) [FG‐12]  5‐HT1A receptor (Rattus norvegicus)      46.2

## Input For O=C(NCCCN1CCN(c2ccc(C3=NCCS3)cc2)CC1)c1ccncc1 [FG‐6] , what is its reported EC50?
## Output 9.4

## Input For O=C1C2C3C=CC(C3)C2C(=O)N1OCCCN1CCN(c2cccc(C3=NCCS3)c2)CC1 (centres unmarked) [FG‐8] , what is its reported EC50?
## Output 7.9
